# System: Staphylococcus aureus X400
# Type: cell-based
# EXPERIMENTAL SETUP: methicillin-resistant strain; agar dilution; 2, 5, 17, 22 median of three tests; paired values two experiments
READOUT KIND: MIC Staphylococcus aureus X400 (µg/mL)

- QUERY SMILES: "CCCCCCCCCCC(=O)NCCC[C@@H]1NC(=O)CNC(=O)[C@@H](NC(=O)[C@H](CC(=O)O)NC(=O)[C@H](CC(N)=O)NC(=O)[C@H](Cc2c[nH]c3ccccc23)NC(=O)CCCCCCCCCC)[C@@H](C)OC(=O)[C@H](CC(=O)c2ccccc2N)NC(=O)[C@H]([C@H](C)CC(=O)O)NC(=O)[C@@H](CO)NC(=O)CNC(=O)[C@H](CC(=O)O)NC(=O)[C@@H](C)NC(=O)[C@H](CC(=O)O)NC1=O"
  UNIT SPEC: "µg/mL"
  NUMERIC VALUE: 4
- QUERY SMILES: "CCCCCCCCCCCCCC(=O)N[C@@H](Cc1c[nH]c2ccccc12)C(=O)N[C@@H](CC(N)=O)C(=O)N[C@@H](CC(=O)O)C(=O)N[C@@H]1C(=O)NCC(=O)N[C@@H](CCCN)C(=O)N[C@@H](CC(=O)O)C(=O)N[C@H](C)C(=O)N[C@@H](CC(=O)O)C(=O)NCC(=O)N[C@H](CO)C(=O)N[C@@H]([C@H](C)CC(=O)O)C(=O)N[C@@H](CC(=O)c2ccccc2N)C(=O)O[C@@H]1C"
  UNIT SPEC: "µg/mL"
  NUMERIC VALUE: 2
- QUERY SMILES: "C=CCCCCCCCCC(=O)N[C@@H](Cc1c[nH]c2ccccc12)C(=O)N[C@@H](CC(N)=O)C(=O)N[C@@H](CC(=O)O)C(=O)N[C@@H]1C(=O)NCC(=O)N[C@@H](CCCN)C(=O)N[C@@H](CC(=O)O)C(=O)N[C@H](C)C(=O)N[C@@H](CC(=O)O)C(=O)NCC(=O)N[C@H](CO)C(=O)N[C@@H]([C@H](C)CC(=O)O)C(=O)N[C@@H](CC(=O)c2ccccc2N)C(=O)O[C@@H]1C"
  UNIT SPEC: "µg/mL"
  NUMERIC VALUE: 0.5
- QUERY SMILES: "CCCCCCCCCCCCCCC(=O)N[C@@H](Cc1c[nH]c2ccccc12)C(=O)N[C@@H](CC(N)=O)C(=O)N[C@@H](CC(=O)O)C(=O)N[C@@H]1C(=O)NCC(=O)N[C@@H](CCCN)C(=O)N[C@@H](CC(=O)O)C(=O)N[C@H](C)C(=O)N[C@@H](CC(=O)O)C(=O)NCC(=O)N[C@H](CO)C(=O)N[C@@H]([C@H](C)CC(=O)O)C(=O)N[C@@H](CC(=O)c2ccccc2N)C(=O)O[C@@H]1C"
  UNIT SPEC: "µg/mL"
  NUMERIC VALUE: 2

* * *

Catalogue of Size of Zone of Inhibition (mm) Staphylococcus aureus ATCC 6738P readings, one per entry.
# Tested on: Staphylococcus aureus ATCC 6738P
# TEST DETAILS: agar-plate disc-diffusion test
# Type: cell-based
# EXPERIMENTAL SETUP: suspended in water at 1 mg/ml; 7 mm disc; 24-48 hours at 25-37° C.
READOUT KIND: Size of Zone of Inhibition (mm) Staphylococcus aureus ATCC 6738P

- COMPOUND: "CCCCCCCC(=O)N[C@@H](Cc1c[nH]c2ccccc12)C(=O)N[C@@H](CC(N)=O)C(=O)N[C@@H](CC(=O)O)C(=O)N[C@@H]1C(=O)NCC(=O)N[C@@H](CCCN)C(=O)N[C@@H](CC(=O)O)C(=O)N[C@H](C)C(=O)N[C@@H](CC(=O)O)C(=O)NCC(=O)N[C@H](CO)C(=O)N[C@@H]([C@H](C)CC(=O)O)C(=O)N[C@@H](CC(=O)c2ccccc2N)C(=O)O[C@@H]1C [Compound 2]"
  ASSAY TARGET: "Staphylococcus aureus ATCC 6738P"
  NUMERIC VALUE: 23
- COMPOUND: "C=CCCCCCCCCC(=O)N[C@@H](Cc1c[nH]c2ccccc12)C(=O)N[C@@H](CC(N)=O)C(=O)N[C@@H](CC(=O)O)C(=O)N[C@@H]1C(=O)NCC(=O)N[C@@H](CCCN)C(=O)N[C@@H](CC(=O)O)C(=O)N[C@H](C)C(=O)N[C@@H](CC(=O)O)C(=O)NCC(=O)N[C@H](CO)C(=O)N[C@@H]([C@H](C)CC(=O)O)C(=O)N[C@@H](CC(=O)c2ccccc2N)C(=O)O[C@@H]1C [Compound 11]"
  ASSAY TARGET: "Staphylococcus aureus ATCC 6738P"
  NUMERIC VALUE: 21
- COMPOUND: "CCCCCCCCCCC(=O)N[C@@H](Cc1c[nH]c2ccccc12)C(=O)N[C@@H](CC(N)=O)C(=O)N[C@@H](CC(=O)O)C(=O)N[C@@H]1C(=O)NCC(=O)N[C@@H](CCCN)C(=O)N[C@@H](CC(=O)O)C(=O)N[C@H](C)C(=O)N[C@@H](CC(=O)O)C(=O)NCC(=O)N[C@H](CO)C(=O)N[C@@H]([C@H](C)CC(=O)O)C(=O)N[C@@H](CC(=O)c2ccccc2N)C(=O)O[C@@H]1C [Compound 5]"
  ASSAY TARGET: "Staphylococcus aureus ATCC 6738P"
  NUMERIC VALUE: 19

* * *

# System: Bacillus subtilis ATCC 6633
# TEST DETAILS: agar-plate disc-diffusion test
# EXPERIMENTAL SETUP: grown on minimal nutrient agar; 1 mg/ml; 7 mm disc; 24-48 hours at 25-37° C.
READOUT KIND: Size of Zone of Inhibition (mm) B. subtilis ATCC 6633, grown on minimal nutrient agar

- QUERY SMILES: "CCCCCCCCCCCCCCC(=O)N[C@@H](Cc1c[nH]c2ccccc12)C(=O)N[C@@H](CC(N)=O)C(=O)N[C@@H](CC(=O)O)C(=O)N[C@@H]1C(=O)NCC(=O)N[C@@H](CCCN)C(=O)N[C@@H](CC(=O)O)C(=O)N[C@H](C)C(=O)N[C@@H](CC(=O)O)C(=O)NCC(=O)N[C@H](CO)C(=O)N[C@@H]([C@H](C)CC(=O)O)C(=O)N[C@@H](CC(=O)c2ccccc2N)C(=O)O[C@@H]1C"
  NUMERIC VALUE: 24
- QUERY SMILES: "CCCCCCCCCCCCC(=O)N[C@@H](Cc1c[nH]c2ccccc12)C(=O)N[C@@H](CC(N)=O)C(=O)N[C@@H](CC(=O)O)C(=O)N[C@@H]1C(=O)NCC(=O)N[C@@H](CCCN)C(=O)N[C@@H](CC(=O)O)C(=O)N[C@H](C)C(=O)N[C@@H](CC(=O)O)C(=O)NCC(=O)N[C@H](CO)C(=O)N[C@@H]([C@H](C)CC(=O)O)C(=O)N[C@@H](CC(=O)c2ccccc2N)C(=O)O[C@@H]1C"
  NUMERIC VALUE: 29
- QUERY SMILES: "CCCCCCCC(=O)N[C@@H](Cc1c[nH]c2ccccc12)C(=O)N[C@@H](CC(N)=O)C(=O)N[C@@H](CC(=O)O)C(=O)N[C@@H]1C(=O)NCC(=O)N[C@@H](CCCN)C(=O)N[C@@H](CC(=O)O)C(=O)N[C@H](C)C(=O)N[C@@H](CC(=O)O)C(=O)NCC(=O)N[C@H](CO)C(=O)N[C@@H]([C@H](C)CC(=O)O)C(=O)N[C@@H](CC(=O)c2ccccc2N)C(=O)O[C@@H]1C"
  NUMERIC VALUE: 20
- QUERY SMILES: "CCCCCCCCCCCC(=O)N[C@@H](Cc1c[nH]c2ccccc12)C(=O)N[C@@H](CC(N)=O)C(=O)N[C@@H](CC(=O)O)C(=O)N[C@@H]1C(=O)NCC(=O)N[C@@H](CCCN)C(=O)N[C@@H](CC(=O)O)C(=O)N[C@H](C)C(=O)N[C@@H](CC(=O)O)C(=O)NCC(=O)N[C@H](CO)C(=O)N[C@@H]([C@H](C)CC(=O)O)C(=O)N[C@@H](CC(=O)c2ccccc2N)C(=O)O[C@@H]1C"
  NUMERIC VALUE: 32
